Target: human CD33 P46Y (human, UniProt P20138 18-364)
Sequence (P20138 18-364 P46Y limits assumed): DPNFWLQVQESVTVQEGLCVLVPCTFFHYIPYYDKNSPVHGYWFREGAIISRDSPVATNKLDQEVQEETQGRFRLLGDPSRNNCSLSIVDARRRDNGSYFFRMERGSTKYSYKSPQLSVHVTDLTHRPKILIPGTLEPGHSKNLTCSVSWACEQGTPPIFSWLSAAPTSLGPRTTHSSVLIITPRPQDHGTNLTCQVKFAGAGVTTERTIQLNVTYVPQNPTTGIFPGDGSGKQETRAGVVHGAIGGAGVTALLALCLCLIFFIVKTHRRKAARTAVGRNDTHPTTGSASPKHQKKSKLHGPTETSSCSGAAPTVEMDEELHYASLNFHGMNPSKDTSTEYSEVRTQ
Assay: flow cytometry, mutant on cells, IgG

- binder: "Refmab #1 (antibody, human IgG1, V domains shown, Tested in IgG format; human IgG1 (Absolute Antibody hP67.6, Cat. No. Ab00283-10.0); also called hP67.6) VH: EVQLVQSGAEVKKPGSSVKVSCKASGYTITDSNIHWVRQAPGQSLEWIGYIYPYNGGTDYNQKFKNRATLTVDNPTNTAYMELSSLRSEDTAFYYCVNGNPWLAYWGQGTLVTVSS VL: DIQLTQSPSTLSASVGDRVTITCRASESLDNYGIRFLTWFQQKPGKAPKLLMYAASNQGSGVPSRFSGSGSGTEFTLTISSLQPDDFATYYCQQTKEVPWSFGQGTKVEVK"
  Mean % WT Binding, % WT binding: 0.9
- binder: "Refmab #2 (antibody, human IgG1, V domains shown, Tested in IgG format; human IgG1 Fc silent (PG-LALA)) VH: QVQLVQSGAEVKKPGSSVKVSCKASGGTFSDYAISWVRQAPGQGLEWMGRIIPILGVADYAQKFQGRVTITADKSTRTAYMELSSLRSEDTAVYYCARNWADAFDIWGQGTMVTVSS VL: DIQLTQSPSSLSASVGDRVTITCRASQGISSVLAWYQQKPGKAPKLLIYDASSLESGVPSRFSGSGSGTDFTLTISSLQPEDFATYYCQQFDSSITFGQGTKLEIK"
  Mean % WT Binding, % WT binding: 60.1
- binder: "Refmab #4 (antibody, human IgG1, V domains shown, Tested in IgG format; human IgG1 Fc silent (PG-LALA)) VH: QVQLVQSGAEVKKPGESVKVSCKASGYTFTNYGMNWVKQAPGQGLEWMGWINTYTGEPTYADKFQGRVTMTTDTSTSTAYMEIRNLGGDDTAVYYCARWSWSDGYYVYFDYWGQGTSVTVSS VL: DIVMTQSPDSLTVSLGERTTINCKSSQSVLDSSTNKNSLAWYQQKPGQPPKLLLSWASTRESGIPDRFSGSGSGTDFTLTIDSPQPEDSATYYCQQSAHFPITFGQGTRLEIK"
  Mean % WT Binding, % WT binding: 26.5
- binder: "Refmab #3 (antibody, human IgG1, V domains shown, Tested in IgG format; human IgG1 Fc silent (PG-LALA)) VH: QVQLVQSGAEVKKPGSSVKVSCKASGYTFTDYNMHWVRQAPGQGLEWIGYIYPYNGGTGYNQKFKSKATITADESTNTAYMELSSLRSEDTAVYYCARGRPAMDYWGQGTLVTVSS VL: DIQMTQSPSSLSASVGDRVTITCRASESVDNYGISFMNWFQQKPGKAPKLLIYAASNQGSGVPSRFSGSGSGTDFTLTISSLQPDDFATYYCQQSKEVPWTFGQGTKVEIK"
  Mean % WT Binding, % WT binding: 0.8
